System under test: T1, human IGSF11 (VSIG3) ECD, His-tagged (human, UniProt Q5DX21 23-241)
T1 construct: in part bought (SinoBiological 13094-H08H); also called HIS-IGSF11; IGSF11-HIS; not shown: His tag
T1 sequence: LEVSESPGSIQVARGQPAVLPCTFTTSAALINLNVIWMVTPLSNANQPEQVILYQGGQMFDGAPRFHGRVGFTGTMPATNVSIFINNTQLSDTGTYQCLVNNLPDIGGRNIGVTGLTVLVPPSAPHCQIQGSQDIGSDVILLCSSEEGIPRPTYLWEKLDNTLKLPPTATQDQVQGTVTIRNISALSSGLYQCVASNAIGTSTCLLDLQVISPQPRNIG
Measurement description: blocking ELISA: VSIR-Fc immobilised, IgG dilution series pre-incubated with 200 nM IGSF11 ECD-His, bound IGSF11 detected with anti-His-HRP
Measurement type: IC50 (read off the curve)

Param item = B-008 (chain-swapped IgG1) (antibody, V domains shown, human IgG1 format; also called B8) VH: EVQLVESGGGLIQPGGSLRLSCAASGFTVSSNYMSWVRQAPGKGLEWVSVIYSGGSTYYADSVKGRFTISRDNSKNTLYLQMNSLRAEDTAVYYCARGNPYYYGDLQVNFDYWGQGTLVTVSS VL: QAVVTQEPSLTVSPGGTVTPTCGSSTGAVTSGNLPNWFQQKPGQAPRALIYSTSNKHSWTPARISGSLLGGKAALTLSGVQPEDEAEYYCLLYYGGAWVFGGGTKLTVL ; retrieve measured IC50 (read off the curve).
~4 nM
